Experiment: chemical genetic growth profiling, strain panel (AID 1159580);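 note: tested at 20 µM; growth read once vehicle control cultures reached saturation at 30 °C; 1 = growth at the plate median or of vehicle wells; lower values mean less growth of the strain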
Details: S. cerevisiae deletion strains, growth OD, locus YEL061C, strain CIN8, active compounds read low
About 2,000 (36%) of roughly 5,500 compounds were called active. About 18% were inconclusive and are not listed. Some of the results follow.
measure name: normalized growth
# output: bare number, no unit

Q: Return reported normalized growth. Input compound: C/C1=C/CC(C)(C)/C=C/C/C(C)=C/CC1
Result: 0.988

Q: Return reported normalized growth. Input compound: CC(=O)O[C@H]1CC[C@@]2(C)C(C[C@@H](OC(C)=O)[C@@]3(C)C4=CC(=O)O[C@@H](c5ccoc5)[C@]4(C)CCC23)C1(C)C (stereo partly drawn)
Result: 1.01

Q: Return reported normalized growth. Input compound: C[C@H](CCC(=O)O)[C@H]1CCC2C3C(=O)CC4CC(=O)CC[C@]4(C)C3CC(=O)[C@@]21C (stereo partly drawn)
Result: 1.01

Q: Return reported normalized growth. Input compound: COc1cc(C/C=C/c2ccccc2)c(OC)cc1O
Result: 0.968

Q: Return reported normalized growth. Input compound: CC(=O)OC1CCC2(C)C(CC(OC(C)=O)C3(C)C4=CC(=O)OC(c5ccoc5)C4(C)CCC23)C1(C)C (stereo not drawn)
Result: 1.01

Q: Return reported normalized growth. Input compound: CC(CCC(=O)O)[C@H]1CCC2C3CC[C@@H]4CC(=O)CC[C@]4(C)C3C=C[C@@]21C (stereo partly drawn)
Result: 1.03

Q: Return reported normalized growth. Input compound: CC(=O)O[C@@H]1CC[C@@]2(C)C(C[C@@H](OC(C)=O)[C@@]3(C)C4=CC(=O)O[C@@H](c5ccoc5)[C@]4(C)CCC23)C1(C)C (stereo partly drawn)
Result: 1.02

Q: Return reported normalized growth. Input compound: CC(=O)O[C@@H]1CC2C(C)(C)[C@H](O)C=C[C@]2(C)C2CC[C@]3(C)C(=CC(=O)O[C@H]3c3ccoc3)[C@@]21C (stereo partly drawn)
Result: 1

Where do these numbers come from? They come from PubChem BioAssay AID1159580.
